# Tested on: MCF10A
# experimentalProtocol: 5+ nucleoli phenotype percent effect (relative to siNT 0% and siKIF11 100%); higher = more cells with five or more nucleoli
# conditionNotes: 20 nM; 72 h
# 5+ nucleoli phenotype percent effect per entry
Enter your answer as a number in %; do not include the unit.

Sample answers from the record:
sequenceString	property	observedMeasurement
UUGCUCUGCUCCCCCGCCCCCAG [hsa-miR-6805-3p]	5+ nucleoli phenotype percent effect	43.1
AAAGGUAAUUGUGGUUUCUGC [hsa-miR-548ag]	5+ nucleoli phenotype percent effect	4.63

Prompt line: Supply reported 5+ nucleoli phenotype percent effect belonging to this sequence: UUUUGCAAUAUGUUCCUGAAUA [hsa-miR-450b-5p]
Response line: 14.4

Prompt line: Supply reported 5+ nucleoli phenotype percent effect belonging to this sequence: UAGCACCAUUUGAAAUCGGUUA [hsa-miR-29c-3p]
Response line: 38

Prompt line: Supply reported 5+ nucleoli phenotype percent effect belonging to this sequence: UCCAUUACACUACCCUGCCUCU [hsa-miR-885-5p]
Response line: -8.23

Prompt line: Supply reported 5+ nucleoli phenotype percent effect belonging to this sequence: CCGUGUUUCCCCCACGCUUU [hsa-miR-3676-3p]
Response line: -17.2

Prompt line: Supply reported 5+ nucleoli phenotype percent effect belonging to this sequence: UCUGGUGUAUAGCGUUGCUCA [hsa-miR-7978]
Response line: -4.49

Prompt line: Supply reported 5+ nucleoli phenotype percent effect belonging to this sequence: UGAGGAUGGAUAGCAAGGAAGCC [hsa-miR-3605-5p]
Response line: 12

Prompt line: Supply reported 5+ nucleoli phenotype percent effect belonging to this sequence: CCUCAGAUCAGAGCCUUGC [hsa-miR-4330]
Response line: 59.5

Prompt line: Supply reported 5+ nucleoli phenotype percent effect belonging to this sequence: UCGUGUCCCUCUUGUCCACAG [hsa-miR-6774-3p]
Response line: 58.8

Prompt line: Supply reported 5+ nucleoli phenotype percent effect belonging to this sequence: AAGUGCCCCCACAGUUUGAGUGC [hsa-miR-371b-3p]
Response line: 68.5
